- Assayed target: HCV NS3/4A protease complex, BMS strain (UniProt P27958, C1454S/C1711G, species not given/STRAIN_BMS)
- Assay comment: Recombinant HCV NS3/4A protease complex FRET peptide assay (BMS strain)
- Type: biochemical, HCV genotype 1a
- Measurement context: NS3/4A BMS strain; read-out: IC50 range
pIC50: −log10 of the molar value.
Assay metric: pIC50

[[record]]
smiles_representation = "C=C[C@@H]1C[C@]1(NC(=O)[C@@H]1C[C@@H](Oc2cc(C)nc(-c3cccs3)c2)CN1C(=O)[C@@H](NC(=O)OC(C)(C)C)C(C)(C)C)C(=O)NS(=O)(=O)C1CC1"
measured = "> 7.00"

[[record]]
smiles_representation = "C=C[C@@H]1C[C@]1(NC(=O)[C@@H]1C[C@@H](Oc2nccc3cc(OC)ccc23)CN1C(=O)[C@@H](NC(=O)NC(C)(C)CC)[C@H](C)OC)C(=O)NS(=O)(=O)C1CC1"
measured = "> 7.00"

[[record]]
smiles_representation = "C=C[C@@H]1C[C@]1(NC(=O)[C@@H]1C[C@@H](Oc2ncc(OC)c3ccccc23)CN1C(=O)[C@@H](NC(=O)OC(C)(C)C)C(C)(C)C)C(=O)NS(=O)(=O)C1CC1"
measured = "> 7.00"

[[record]]
smiles_representation = "C=C[C@@H]1C[C@]1(NC(=O)[C@@H]1C[C@@H](Oc2nccc3cccc(OC)c23)CN1C(=O)[C@@H](NC(=O)OC(C)(C)C)C(C)(C)C)C(=O)NS(=O)(=O)C1CC1"
measured = "6.00 to 7.00"

[[record]]
smiles_representation = "C=C[C@@H]1C[C@]1(NC(=O)[C@@H]1C[C@@H](Oc2cc(-c3ccccc3)nc(-c3ccc(OC)cc3)c2)CN1C(=O)[C@@H](NC(=O)OC(C)(C)C)C(C)(C)C)C(=O)NS(=O)(=O)C1CC1"
measured = "> 7.00"


###

- Assayed target: HCV NS3/4A protease complex, BMS strain (UniProt P27958, C1454S/C1711G, species not given/STRAIN_BMS)
- Assay comment: Recombinant HCV NS3/4A protease complex FRET peptide assay (BMS strain)
- Assay type: biochemical, HCV genotype 1a
- Measurement context: NS3/4A BMS strain; read-out: IC50 range
In this section we review reported IC50 values for a set of compounds.
Assay metric: IC50

[[record]]
compound = "C=CC1C[C@]1(NC(=O)[C@@H]1C[C@@H](Oc2nc3c(c4ccccc24)OCC3)CN1C(=O)[C@@H](NC(=O)OC(C)(C)C)C(C)(C)C)C(=O)NS(=O)(=O)C1CC1 (some centres unmarked)"
measured = "< 100 nM"

[[record]]
compound = "C=C[C@@H]1C[C@]1(NC(=O)[C@@H]1C[C@@H](Oc2cc(-c3ccccn3)nc3cc(OC)ccc23)CN1C(=O)[C@@H](NC(=O)OC(C)(C)C)C(C)(C)C)C(=O)NS(=O)(=O)C1CC1"
measured = "< 100 nM"

[[record]]
compound = "C=CC1C[C@]1(NC(=O)[C@@H]1C[C@@H](Oc2nc(-c3ccncc3)cc3cc(OC)ccc23)CN1C(=O)[C@@H](NC(=O)OC(C)(C)C)C(C)(C)C)C(=O)NS(=O)(=O)C1CC1 (some centres unmarked)"
measured = "< 100 nM"

[[record]]
compound = "C=CC1C[C@]1(NC(=O)[C@@H]1C[C@@H](Oc2nc(-c3cnccn3)c(OC)c3ccccc23)CN1C(=O)[C@@H](NC(=O)OC(C)(C)C)C(C)(C)C)C(=O)NS(=O)(=O)C1CC1 (some centres unmarked)"
measured = "1000 to 10000 nM"

[[record]]
compound = "C=CC1C[C@]1(NC(=O)[C@@H]1C[C@@H](COc2cccc(-c3ccccc3)n2)CN1C(=O)[C@@H](NC(=O)OC)C(C)(C)C)C(=O)NS(=O)(=O)C1CC1 (some centres unmarked)"
measured = "1000 to 10000 nM"

[[record]]
compound = "C=CC1C[C@]1(NC(=O)[C@@H]1C[C@@H](Oc2nccc3sccc23)CN1C(=O)[C@@H](NC(=O)OC(C)(C)C)C(C)(C)C)C(=O)NS(=O)(=O)C1CC1 (some centres unmarked)"
measured = "< 100 nM"

[[record]]
compound = "C=C[C@@H]1C[C@]1(NC(=O)[C@@H]1C[C@@H](Oc2ccnc3cc(OC)ccc23)CN1C(=O)[C@@H](NC(=O)OC(C)(C)C)C(C)C)C(=O)NS(=O)(=O)C1CC1"
measured = "< 100 nM"

[[record]]
compound = "C=CC1CC1(NC(=O)[C@@H]1C[C@@H](Oc2cc(C(F)(F)F)nc3ccc(F)cc23)CN1C(=O)[C@@H](NC(=O)OC(C)(C)C)C(C)(C)C)C(=O)NS(=O)(=O)C1CC1 (some centres unmarked)"
measured = "< 100 nM"

[[record]]
compound = "CC[C@@H]1C[C@]1(NC(=O)[C@@H]1C[C@@H](Oc2cc3c(Cl)nccc3cc2OC)CN1C(=O)[C@@H](NC(=O)OC(C)(C)C)C(C)(C)C)C(=O)NS(=O)(=O)C1CC1"
measured = "< 100 nM"

[[record]]
compound = "C=CC1C[C@]1(NC(=O)[C@@H]1C[C@@H](Oc2nnc(OCC)c3ccccc23)CN1C(=O)[C@@H](NC(=O)OC(C)(C)C)C(C)(C)C)C(=O)NS(=O)(=O)C1CC1 (some centres unmarked)"
measured = "< 100 nM"

[[record]]
compound = "C=CC1CC1(NC(=O)[C@@H]1C[C@@H](Oc2ccnc(N3CCc4ccccc4C3)n2)CN1C(=O)[C@@H](NC(=O)OC)C(C)(C)C)C(=O)NS(=O)(=O)C1CC1 (some centres unmarked)"
measured = "1000 to 10000 nM"

[[record]]
compound = "C=C[C@@H]1C[C@]1(NC(=O)[C@@H]1CC(Oc2nccc3cc(OC)ccc23)CN1C(=O)[C@@H](NC(=O)C1CCCC1)C(C)(C)C)C(=O)NS(=O)(=O)C1CC1 (some centres unmarked)"
measured = "< 100 nM"

[[record]]
compound = "C=C[C@@H]1C[C@]1(NC(=O)[C@@H]1C[C@@H](Oc2cccc3ccccc23)CN1C(=O)[C@@H](NC(=O)OC(C)(C)C)C(C)(C)C)C(=O)NS(C)(=O)=O"
measured = "100 to 1000 nM"

[[record]]
compound = "C=C[C@@H]1C[C@]1(NC(=O)[C@@H]1C[C@@H](Oc2nccc3cc(O)ccc23)CN1C(=O)[C@@H](NC(=O)OC(C)(C)C)C(C)(C)C)C(=O)NS(=O)(=O)C1CC1"
measured = "< 100 nM"


###

Some compounds, each annotated with its measured EC50.
- Test system: HCV replicon in Huh7 cells
- Assay comment: HCV replicon cell-based assay
- Design: species or system HCV strain 1B
- Measurement context: Hepatitis C virus, Huh-7; HCV replicon, Huh7 cells; read-out: EC50 range
Assay metric: EC50

[[record]]
compound = "C=C[C@@H]1C[C@]1(NC(=O)[C@@H]1CC(Oc2nccc3cc(OC)ccc23)CN1C(=O)[C@H](CCC)N(C)C(=O)OC(C)(C)C)C(=O)NS(=O)(=O)C1CC1 (stereo partly shown) [Compound 88]"
assayed_target = "HCV replicon in Huh7 cells"
measured = "10 to 100 µM"

[[record]]
compound = "C=C[C@@H]1C[C@]1(NC(=O)[C@@H]1C[C@@H](Oc2nccc3cc(OC)ccc23)CN1C(=O)[C@@H](NC(=O)N[C@@H](C(=O)OC)C(C)C)C(C)(C)C)C(=O)NS(=O)(=O)C1CC1 [Compound 142]"
assayed_target = "HCV replicon in Huh7 cells"
measured = "< 0.1 µM"

[[record]]
compound = "C=CC1CC1(NC(=O)[C@@H]1C[C@@H](Oc2cc(-c3ccccc3)nc3c(C)noc23)CN1C(=O)[C@@H](NC(=O)OC(C)(C)C)C(C)(C)C)C(=O)NS(=O)(=O)C1CC1 (stereo partly shown) [Compound 10]"
assayed_target = "HCV replicon in Huh7 cells"
measured = "< 0.1 µM"

[[record]]
compound = "C=CC1C[C@]1(NC(=O)[C@@H]1C[C@@H](Oc2ccc3c(Cl)nccc3c2SCCC)CN1C(=O)[C@@H](NC(=O)OC(C)(C)C)C(C)(C)C)C(=O)NS(=O)(=O)C1CC1 (stereo partly shown) [Compound 204]"
assayed_target = "HCV replicon in Huh7 cells"
measured = "0.1 to 1 µM"

[[record]]
compound = "C=CC1C[C@]1(NC(=O)[C@@H]1C[C@@H](Oc2ccc3nccc(Cl)c3c2)CN1C(=O)[C@@H](NC(=O)OC(C)(C)C)C(C)(C)C)C(=O)NS(=O)(=O)C1CC1 (stereo partly shown) [Compound 240]"
assayed_target = "HCV replicon in Huh7 cells"
measured = "< 0.1 µM"

[[record]]
compound = "C=C[C@@H]1C[C@]1(NC(=O)[C@@H]1CC(Oc2nccc3cc(OC)ccc23)CN1C(=O)[C@@H](NC(=O)OC(C)(C)C(Cl)(Cl)Cl)C(C)(C)C)C(=O)NS(=O)(=O)C1CC1 (stereo partly shown) [Compound 68]"
assayed_target = "HCV replicon in Huh7 cells"
measured = "< 0.1 µM"

[[record]]
compound = "C=C[C@@H]1C[C@]1(NC(=O)[C@@H]1C[C@@H](Oc2cncc(-c3ccoc3)c2)CN1C(=O)[C@@H](NC(=O)OC(C)(C)C)C(C)(C)C)C(=O)NS(=O)(=O)C1CC1 [Compound 424]"
assayed_target = "HCV replicon in Huh7 cells"
measured = "0.1 to 1 µM"

[[record]]
compound = "C=C[C@@H]1C[C@]1(NC(=O)[C@@H]1C[C@@H](Oc2nc(-c3nccs3)cc3cc(OC)ccc23)CN1C(=O)[C@@H](NC(=O)OC(C)(C)C)C(C)(C)C)C(=O)NS(=O)(=O)C1CC1 [Compound 37]"
assayed_target = "HCV replicon in Huh7 cells"
measured = "< 0.1 µM"

[[record]]
compound = "C=C[C@@H]1C[C@]1(NC(=O)[C@@H]1C[C@@H](Oc2nccc3c4c(ccc23)OCCO4)CN1C(=O)[C@@H](NC(=O)OC(C)(C)C)C(C)(C)C)C(=O)NS(=O)(=O)C1CC1 [Compound 286]"
assayed_target = "HCV replicon in Huh7 cells"
measured = "< 0.1 µM"

[[record]]
compound = "C=C[C@@H]1C[C@]1(NC(=O)[C@@H]1C[C@@H](Oc2nccc3cc(OC)ccc23)CN1C(=O)[C@@H](NC(=O)OCC(C)(C)C)C(C)(C)C)C(=O)NS(=O)(=O)C1CC1 [Compound 18]"
assayed_target = "HCV replicon in Huh7 cells"
measured = "< 0.1 µM"

[[record]]
compound = "C=CC1C[C@]1(NC(=O)[C@@H]1C[C@@H](Oc2nccc(-c3ccccn3)n2)CN1C(=O)[C@@H](NC(=O)OC)C(C)(C)C)C(=O)NS(=O)(=O)C1CC1 (stereo partly shown) [Compound 336]"
assayed_target = "HCV replicon in Huh7 cells"
measured = "1 to 10 µM"

[[record]]
compound = "C=C[C@@H]1C[C@]1(NC(=O)[C@@H]1C[C@@H](Oc2nccc3cc(OC)ccc23)CN1C(=O)[C@H](CC(=O)OC(C)(C)C)NC(=O)OC(C)(C)C)C(=O)NS(=O)(=O)C1CC1 [Compound 139]"
assayed_target = "HCV replicon in Huh7 cells"
measured = "0.1 to 1 µM"

[[record]]
compound = "C=C[C@@H]1C[C@]1(NC(=O)[C@@H]1C[C@@H](Oc2cc(-c3ccc(F)cc3)nc3c(C)noc23)CN1C(=O)[C@@H](NC(=O)OC(C)(C)C)C(C)(C)C)C(=O)NS(=O)(=O)C1CC1 [Compound 4]"
assayed_target = "HCV replicon in Huh7 cells"
measured = "< 0.1 µM"

[[record]]
compound = "C=C[C@@H]1C[C@]1(NC(=O)[C@@H]1C[C@@H](Oc2cc(-c3cccs3)ncn2)CN1C(=O)[C@@H](NC(=O)OC(C)(C)C)C(C)(C)C)C(=O)NS(=O)(=O)C1CC1 [Compound 412]"
assayed_target = "HCV replicon in Huh7 cells"
measured = "< 0.1 µM"

[[record]]
compound = "C=C[C@@H]1C[C@]1(NC(=O)[C@@H]1C[C@@H](Oc2ccnc3ccccc23)CN1C(=O)[C@@H](NC(=O)OC(C)(C)C)C(C)(C)C)C(=O)NS(C)(=O)=O [Compound 386]"
assayed_target = "HCV replicon in Huh7 cells"
measured = "1 to 10 µM"

[[record]]
compound = "C=CC1CC1(NC(=O)[C@@H]1C[C@@H](Oc2cc(C(F)(F)F)nc3nc(C)ccc23)CN1C(=O)[C@@H](NC(=O)OC(C)(C)C)C(C)(C)C)C(=O)NS(=O)(=O)C1CC1 (stereo partly shown) [Compound 8]"
assayed_target = "HCV replicon in Huh7 cells"
measured = "1 to 10 µM"

[[record]]
compound = "CC[C@@H]1C[C@]1(NC(=O)[C@@H]1C[C@@H](Oc2nccc3c(F)c(OC)ccc23)CN1C(=O)[C@@H](NC(=O)OC(C)(C)C)C(C)(C)C)C(=O)NS(=O)(=O)C1CC1 [Compound 299]"
assayed_target = "HCV replicon in Huh7 cells"
measured = "0.1 to 1 µM"

[[record]]
compound = "C=CC1C[C@]1(NC(=O)[C@@H]1C[C@@H](Oc2nccc(-c3nccs3)n2)CN1C(=O)[C@@H](NC(=O)CC1CC1)C(C)(C)C)C(=O)NS(=O)(=O)C1CC1 (stereo partly shown) [Compound 340]"
assayed_target = "HCV replicon in Huh7 cells"
measured = "10 to 100 µM"

[[record]]
compound = "C=C[C@@H]1C[C@]1(NC(=O)[C@@H]1C[C@@H](Oc2nccc3cc(OC)c(Cl)cc23)CN1C(=O)[C@@H](NC(=O)OC(C)(C)C)C(C)(C)C)C(=O)NS(=O)(=O)C1CC1 [Compound 273]"
assayed_target = "HCV replicon in Huh7 cells"
measured = "< 0.1 µM"

